Assay read-out MIC; system under study: E.faecalis ATCC 29212.
Enter your answer as a number in µg/mL; do not include the unit.

A selection of reference data follows.
C[Si]1(c2ccccc2)CCN(c2c(F)cc(N3C[C@H](CN)OC3=O)cc2F)CC1 [NDS-10070] | 32
C[Si]1(C)CCN(c2c(F)cc(N3C[C@H](Cn4ccnn4)OC3=O)cc2F)CC1 [NDS-10058] | 32
COC(=S)NC[C@H]1CN(c2ccc(N3CC[Si](C)(C)CC3)c(F)c2)C(=O)O1 [NDS-10062] | 1

Now for a further compound.
### Prompt Give MIC; test system E.faecalis ATCC 29212; compound CCC(=O)NC[C@H]1CN(c2cc(F)c(N3CC[Si](C)(C)CC3)c(F)c2)C(=O)O1 [NDS-10056]
### Response 32

====

Assay read-out MIC; system under study: S.aureus ATCC 700699 Mu50.

CC(C)(C)OC(=O)NC[C@H]1CN(c2cc(F)c(N3CC[Si](C)(C)CC3)c(F)c2)C(=O)O1 | > 16 µg/mL
CC(=O)NCC1CN(c2ccc(N3CC[Si](C)(C)CC3)c(F)c2)C(=O)O1 (centres unmarked) | 16 µg/mL
C[Si]1(C)CCN(c2c(F)cc(N3C[C@H](CN)OC3=O)cc2F)CC1 | 16 µg/mL
C[Si]1(C)CCN(c2ccc(N3C[C@H](CN)OC3=O)cc2F)CC1 | > 32 µg/mL

### Prompt Entry CC(=O)NC[C@H]1CN(c2ccc(N3CC[Si](C)(C)CC3)c(F)c2)C(=O)O1 needs its MIC filled in; supply it.
### Response 8 µg/mL

### Prompt Entry COC(=O)NC[C@H]1CN(c2ccc(N3CC[Si](C)(C)CC3)c(F)c2)C(=O)O1 needs its MIC filled in; supply it.
### Response 32 µg/mL

### Prompt Entry C[Si]1(C)CCN(c2c(F)cc(N3C[C@H](Cn4ccnn4)OC3=O)cc2F)CC1 needs its MIC filled in; supply it.
### Response > 32 µg/mL

### Prompt Entry C[Si]1(c2ccccc2)CCN(c2c(F)cc(N3C[C@H](CN)OC3=O)cc2F)CC1 needs its MIC filled in; supply it.
### Response > 32 µg/mL

====

Below, each of the molecules is paired with its reported MIC value.
- System: MRSA ATCC BAA 39
- procedureDetails: MIC by microbroth dilution method
- Format: cell-based, S. aureus
Enter your answer as a number in µg/mL; do not include the unit.

A selection of reference data follows.
CC(=O)NC[C@H]1CN(c2ccc(N3CCOCC3)c(F)c2)C(=O)O1 [Linezolid, reference compound] | 2
COC(=O)NC[C@H]1CN(c2cc(F)c(N3CC[Si](C)(C)CC3)c(F)c2)C(=O)O1 | 8
COC(=S)NC[C@H]1CN(c2ccc(N3CC[Si](C)(C)CC3)c(F)c2)C(=O)O1 | 4
C[Si]1(C)CCN(c2c(F)cc(N3C[C@H](CO)OC3=O)cc2F)CC1 | 16

### Prompt Entry CC(=O)NC[C@H]1CN(c2ccc(N3CC[Si](C)(C)CC3)c(F)c2)C(=O)O1 needs its MIC filled in; supply it.
### Response 16

### Prompt Entry C[Si]1(C)CCN(c2ccc(N3C[C@H](Cn4ccnn4)OC3=O)cc2F)CC1 needs its MIC filled in; supply it.
### Response 16

### Prompt Entry CC(=O)NCC1CN(c2ccc(N3CC[Si](C)(C)CC3)c(F)c2)C(=O)O1 (stereo not drawn) needs its MIC filled in; supply it.
### Response 16

====

- Tested on: S.epidermis St 358
Param label: returns met when MIC < 20 µg/mL, returns not met otherwise, including exact equality.

Solved cases (5 shown):
COC(=O)NC[C@H]1CN(c2cc(F)c(N3CC[Si](C)(C)CC3)c(F)c2)C(=O)O1 | met
CCC(=O)NC[C@H]1CN(c2cc(F)c(N3CC[Si](C)(C)CC3)c(F)c2)C(=O)O1 | not met
C[Si]1(C)CCN(c2ccc(N3C[C@H](CO)OC3=O)cc2F)CC1 | not met
C[Si]1(c2ccccc2)CCN(c2c(F)cc(N3C[C@H](CO)OC3=O)cc2F)CC1 | met
C[Si]1(c2ccccc2)CCN(c2c(F)cc(N3C[C@H](CN)OC3=O)cc2F)CC1 | not met

### Prompt # strict comparison: is reported MIC < 20 µg/mL? input = CC(=O)NC[C@H]1CN(c2cc(F)c(N3CC[Si](C)(C)CC3)c(F)c2)C(=O)O1
### Response met

====

- System: E.faecium ATCC 35667
measuredAttribute: MIC (µg/mL)
Enter your answer as a number in µg/mL; do not include the unit.

CC(=O)NCC1CN(c2ccc(N3CC[Si](C)(C)CC3)c(F)c2)C(=O)O1 (centres unmarked) [NDS-10026] | 8
C[Si]1(C)CCN(c2c(F)cc(N3C[C@H](CN)OC3=O)cc2F)CC1 [NDS-10054] | 8

### Prompt Entry C[Si]1(C)CCN(c2ccc(N3C[C@H](Cn4ccnn4)OC3=O)cc2F)CC1 [NDS-10060] needs its MIC filled in; supply it.
### Response 32

### Prompt Entry COC(=O)NC[C@H]1CN(c2ccc(N3CC[Si](C)(C)CC3)c(F)c2)C(=O)O1 [NDS-10061] needs its MIC filled in; supply it.
### Response 16

### Prompt Entry C[Si]1(c2ccccc2)CCN(c2c(F)cc(N3C[C@H](CN)OC3=O)cc2F)CC1 [NDS-10070] needs its MIC filled in; supply it.
### Response 32

### Prompt Entry COC(=S)NC[C@H]1CN(c2ccc(N3CC[Si](C)(C)CC3)c(F)c2)C(=O)O1 [NDS-10062] needs its MIC filled in; supply it.
### Response 4

### Prompt Entry C[Si]1(c2ccccc2)CCN(c2c(F)cc(N3C[C@H](CO)OC3=O)cc2F)CC1 [NDS-10071] needs its MIC filled in; supply it.
### Response 16

====

- System: S.aureus ATCC 700699 Mu50
- procedureDetails: MIC by microbroth dilution method
- Assay type: cell-based
Below, each of the compounds is paired with its reported MIC value.
Enter your answer as a number in µg/mL; do not include the unit.

COC(=O)NC[C@H]1CN(c2cc(F)c(N3CC[Si](C)(C)CC3)c(F)c2)C(=O)O1 | 8
C[Si]1(C)CCN(c2c(F)cc(N3C[C@H](CO)OC3=O)cc2F)CC1 | 8

Now for a further compound.
### Prompt Entry CC(=O)NC[C@H]1CN(c2cc(F)c(N3CC[Si](C)(C)CC3)c(F)c2)C(=O)O1 needs its MIC filled in; supply it.
### Response 8

====

- Tested on: E.faecium 134 VRE
measuredAttribute: MIC (µg/mL)
Enter your answer as a number in µg/mL; do not include the unit.

A selection of reference data follows.
CC(=O)NC[C@H]1CN(c2ccc(N3CCOCC3)c(F)c2)C(=O)O1 [Linezolid, reference compound] | 2
COC(=O)NC[C@H]1CN(c2cc(F)c(N3CC[Si](C)(C)CC3)c(F)c2)C(=O)O1 | 32
COC(=S)NC[C@H]1CN(c2ccc(N3CC[Si](C)(C)CC3)c(F)c2)C(=O)O1 | 4
C[Si]1(C)CCN(c2c(F)cc(N3C[C@H](Cn4ccnn4)OC3=O)cc2F)CC1 | 4
C[Si]1(C)CCN(c2ccc(N3C[C@H](Cn4ccnn4)OC3=O)cc2F)CC1 | 16

Now for a further molecule.
### Prompt Give MIC; test system E.faecium 134 VRE; molecule CC(=O)NC[C@H]1CN(c2cc(F)c(N3CC[Si](C)(C)CC3)c(F)c2)C(=O)O1
### Response 8

====

Assay read-out MIC; system under study: S.aureus ATCC 700699 Mu50.
Quote the value and follow it with the unit of measurement.

C[Si]1(c2ccccc2)CCN(c2c(F)cc(N3C[C@H](CO)OC3=O)cc2F)CC1 | 32 µg/mL
CCC(=O)NC[C@H]1CN(c2cc(F)c(N3CC[Si](C)(C)CC3)c(F)c2)C(=O)O1 | 16 µg/mL
COC(=S)NC[C@H]1CN(c2ccc(N3CC[Si](C)(C)CC3)c(F)c2)C(=O)O1 | 8 µg/mL
CC(=O)NC[C@H]1CN(c2ccc(N3CCOCC3)c(F)c2)C(=O)O1 [Linezolid, reference compound] | 2 µg/mL

Now for a further compound.
### Prompt Give MIC; test system S.aureus ATCC 700699 Mu50; compound C[Si]1(C)CCN(c2ccc(N3C[C@H](Cn4ccnn4)OC3=O)cc2F)CC1
### Response 32 µg/mL

====

Assay read-out MIC; system under study: MRSA ATCC BAA 39.

C[Si]1(C)CCN(c2ccc(N3C[C@H](CN)OC3=O)cc2F)CC1 [NDS-10057] | > 32 µg/mL
C[Si]1(C)CCN(c2c(F)cc(N3C[C@H](Cn4ccnn4)OC3=O)cc2F)CC1 [NDS-10058] | > 32 µg/mL

Now for a further molecule.
### Prompt Give MIC; test system MRSA ATCC BAA 39; molecule C[Si]1(C)CCN(c2ccc(N3C[C@H](CO)OC3=O)cc2F)CC1 [NDS-10059]
### Response > 32 µg/mL

Reference source for all entries: patent US9233989B2
